Test system: SF-539 CNS
Assay: NCI tumour cell line growth inhibition, 48 h; in the data active = GI50 below about 0.43 µM; inactive = the rest
Hello, when you answer, please use one of the following outcomes: yes (active), no (inactive)

N#CCCN(CCCN(CCCN(C(=O)Nc1ccccc1)c1ccccc1)C(=O)Nc1ccccc1)C(=O)Nc1ccccc1 : no
C=CCC1(O)c2ccccc2C(=O)c2c(NCCN(CC(=O)OCC)CC(=O)OCC)cccc21 (stereo not drawn) : no
COC1=CC(c2ccc[nH]2)=N/C1=C\c1[nH]c(C)c(C(=O)CCCCC(=O)NC(C)(C)C)c1C : no
Cc1cc(O)c(C2=NN(c3ccc(S(N)(=O)=O)cc3)C(c3ccccc3Cl)C2)cc1Cl (stereo not drawn) : no

Exercise: Assay outcome for COc1cccc(C2=C(c3c(C)n(C)c4ccccc34)C(=O)NC2=O)c1 : what was it?
Key: no

Exercise: Assay outcome for COc1cccc2c1ccc1nc3cccc(C(=O)N[C@H](C)CN(C)C)c3nc12 : what was it?
Key: yes

Exercise: Assay outcome for COC(=O)[C@@]12OC[C@]34[C@H]([C@@H](O)[C@@H]1O)[C@@]1(C)[C@H](O)C(=O)C=C(C)[C@@H]1C[C@H]3OC(=O)C(OC(C)=O)[C@@H]24 (stereo partly drawn) : what was it?
Key: yes

Exercise: Assay outcome for COc1cc2c3c(n(CCCCN)c(=O)c2cc1OC)-c1cc2c(cc1C3=O)OCO2 : what was it?
Key: yes

* * *

Test system: SK-OV-3 ovarian
Test: NCI tumour cell line growth inhibition, 48 h
parameterMeasured: log10 TGI (log10 of the value in µM)
Heads up, the numbers here are log10 of TGI in µM units.

Answered examples (4):
Cc1cc(O)c(C2=NN(c3ccc(S(N)(=O)=O)cc3)C(c3ccccc3Cl)C2)cc1Cl (centres undefined) : 1.02
CC[C@]1(Cc2ccc(OC)c(OC)c2)C=[N+]([O-])O[C@H](OC2CCCC2(c2ccccc2)c2ccccc2)[C@@H]1OC(C)=O (some centres undefined) : 1.70
NCCCCc1cc(O)c2c(c1O)C(=O)c1ccccc1C2=O : 1.46
CCCCC[C@H]1C/C=C2/C(=O)C=C[C@@H]2C/C=C\CCCC(=O)O[C@@H](CCCCC)C/C=C2/C(=O)C=C[C@@H]2C/C=C\CCCC(=O)O1 : 0.38

Exercise: Hello, please tell me recorded log10 TGI for this one: Cc1ccc(NC2=CC(=O)C(NO)c3ccccc32)cc1 (centres undefined)
Key: 1.67

* * *

Tested on: HOP-62 NSCLC
Experiment: NCI tumour cell line growth inhibition, 48 h
Provide the reported TGI of each item.

Answered examples (8):
COc1nc(C#CC2(O)CCCCC2)nc(OC)n1 : 91 µM
NC(=O)c1c(NC(=O)c2ccccn2)sc2c1CCC(=O)C2 : > 100 µM
CCOC(=O)c1c(N)sc2c1C(C)(C(=O)OCC)CC2 (stereo not given) : > 100 µM
CCOC(=O)/C=C/n1c2ccccc2c(=O)c2ccccc21 : > 100 µM
Cc1ccc(N(C(=O)Nc2ccccc2)C2=NCC(C)S2)cc1C (stereo not given) : > 100 µM
N#Cc1c(-c2ccc([N+](=O)[O-])cc2)c(C#N)c(=O)n(NS(=O)(=O)c2ccccc2)c1-c1ccccc1 : > 100 µM
CC1=NN(c2nc(N)nc(CSc3nc4n(c(=S)n3)CCN4)n2)C(C)(C)C1 : 27.9 µM
CC1CC[C@@]2(OC1)OC1C[C@H]3[C@@H]4CC=C5CC(OC6OC(CO)C(OC7OC(CO)C(O)C(OC8OCC(O)C(O)C8O)C7OC7OC(CO)C(O)C(O)C7O)C(O)C6O)CCC5(C)[C@H]4CCC3(C)C1[C@@H]2C (stereo not given in full) : 9.32 µM

Please give TGI for each item listed below.
1. COC(=O)/C(=N\NC(=O)C[N+](C)(C)C)C(C(=O)OC)C(=O)C(=O)Nc1ccccc1C(N)=O (stereo not given)
2. Cc1nn(C(=O)c2ccc(Cl)cc2)c2c1C(c1ccccc1[N+](=O)[O-])SC(N)=N2 (stereo not given)
3. C/C=C\C(CC(=O)NCCC1CN(S(=O)(=O)c2ccc(C)cc2)c2ccccc21)CC(=O)OC (stereo not given)
4. Cc1nn(C(=O)Cc2ccccc2)c2c1C(c1ccc(O)cc1O)SC(N)=N2 (stereo not given)
5. Cc1cc2c(cc1Cl)S(=O)(=O)OC(c1ccc([N+](=O)[O-])cc1)=N2
6. CCN(Cc1ccc(F)cc1)c1ccc(CO)c(F)c1
7. CN(C)C(=S)/N=c1\ssc(=S)n1Cc1ccccc1

Key:
1: > 100 µM; 2: > 10 µM; 3: > 100 µM; 4: > 100 µM; 5: > 100 µM; 6: > 100 µM; 7: 20.7 µM

Please give TGI for each item listed below.
1. Cc1nn(-c2ccccc2)c(C)c1/C=N/N=C1\SCC(=O)N1c1ccccc1
2. O=C1NCc2ccccc2S(=O)(=O)n2cccc21
3. CCC12CCCN(Cc3ccccc3)C1c1c(n(C)c3ccccc13)C(C(=O)OC)C2 (stereo not given)
4. O=c1[nH]nc2ccccc2c1Cc1ccccc1
5. CC(=O)OCC1OC(OC2CC3C(C)(C)C(OC(C)=O)CC[C@]3(C)C3CCC45CC4(CCC5[C@@H](C)C[C@H](O)C(O)C(C)(C)O)[C@]23C)C(O)C(O)C1O (stereo not given in full)

Key:
1: 86.8 µM; 2: > 100 µM; 3: > 239 µM; 4: > 100 µM; 5: > 10 µM

* * *

System: KM12 colon
Assay: NCI tumour cell line growth inhibition, 48 h
parameterMeasured: TGI

COc1cccc2c1ccc1nc3cccc(C(=O)N[C@H](C)CN(C)C)c3nc12 : 2.33 µM
CCCCCCCCCCCCCCCCOCC(CC(F)(F)P(=O)(OCC)OCC)OC(C)=O (configuration not stated) : 23.8 µM
O=S(=O)(O)C(=Nc1cccc(Cc2ccccc2)c1)Nc1cccc(Cc2ccccc2)c1 : 31.5 µM
C=CCc1cccc2cc(C(=O)Nc3ccccc3)c(=N)oc12 : > 100 µM
CNC(=O)c1cccc2cc(Oc3ccnc4cc(OCC5(N)CC5)c(OC)cc34)ccc12 : 19.7 µM
COC1=CC(c2ccc[nH]2)=N/C1=C\c1[nH]c(C)c(C(=O)CCCCC(=O)NC(C)(C)C)c1C : 2.38 µM

Please give TGI for each item listed below.
1. COc1ccc2c(=O)cc(-c3ccncc3)oc2c1OC
2. CCOc1ccc(/C(Cl)=C(\C=O)c2ccc(OC)c(OC)c2)cc1OCC
3. C=CCNC(=O)N(CCCC(NC(C)=O)C(=O)NCc1ccccc1)Cc1ccccc1 (configuration not stated)
4. COC(=O)c1ccccc1OCc1cc(=O)oc2ccc(C)cc12
5. O=c1c2ccccc2c(=O)n2n1CC=CC2
6. c1ccc(CN2CCC3(CC2)SSC2(CCN(Cc4ccccc4)CC2)S3)cc1

Key:
["96.2 µM", "> 100 µM", "> 100 µM", "> 100 µM", "> 100 µM", "> 100 µM"]

Please give TGI for each item listed below.
1. CN(C)C(=S)/N=c1\ssc(=S)n1Cc1cccnc1
2. O=C(O/C(=C(/N=Nc1ccccc1)c1ccccc1)c1ccccc1)c1ccccc1

Key:
36.2 µM
> 100 µM

Please give TGI for each item listed below.
1. C=CCC1(OC(C)=O)C2OC(=O)C1(O)OCC2O (configuration not stated)
2. NCCCCc1cc(O)c2c(c1O)C(=O)c1ccccc1C2=O
3. Cc1ccc(NC2=CC(=O)C(NO)c3ccccc32)cc1 (configuration not stated)
4. CCCCCCCCC/C=C/C=C/C(=O)NCC(=O)NC1C(O)C(O)C(Nc2ncnc3nc[nH]c23)OC1C(O)CO (configuration not stated)
5. CN(C)CCN(C)c1ccc2c(=O)n(CCN(C)C)c(=O)n3c4ccccc4c(=O)c1c23
6. CCCc1cc(=O)[nH]c(-n2nc(C)cc2C)n1

Key:
1. > 100 µM
2. 24.2 µM
3. 20.2 µM
4. 0.608 µM
5. 8.08 µM
6. > 100 µM

Please give TGI for each item listed below.
1. COc1ccc(-c2nc(-c3ccccc3)c(-c3ccccc3)[nH]2)cc1OC1CCCC1
2. c1ccc(C(c2ccccc2)c2cccnc2)cc1

Key:
1: > 100 µM; 2: > 100 µM

* * *

System: DU-145 prostate
Experiment: NCI tumour cell line growth inhibition, 48 h
Provide the reported TGI of each item.
One number for each entry, in µM.

Answered examples (3):
CCC1CN2C(=N1)c1ccccc1-c1cc(Cl)ccc12 (centres undefined) : 6.26
CN1CCN(CCOc2ccc(-c3cnc4c(-c5ccc(C(F)(F)F)cc5)cnn4c3)cc2)CC1 : 2.93
COc1ccc2c(c1)[nH]c1c(/C=C/c3ccccc3)nccc12 : 51.8

Exercise: Hello, please tell me recorded TGI for this one: NCCCCc1cc(O)c2c(c1O)C(=O)c1ccccc1C2=O
Key: 26.8
